B1: TPR t1 (parent)
chain: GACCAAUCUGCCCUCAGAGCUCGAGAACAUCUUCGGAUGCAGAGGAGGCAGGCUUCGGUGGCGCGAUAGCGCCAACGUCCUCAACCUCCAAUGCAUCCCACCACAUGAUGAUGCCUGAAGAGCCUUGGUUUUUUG

Variants of: B1
assay-comment: polymerase ribozyme fitness, log enrichment relative to wild type (log ratio); higher = more active; in vitro selection for triplet polymerase activity
Recorded polymerase ribozyme fitness (log ratio) for the following variants
property: polymerase ribozyme fitness (log ratio)

1) U59C A66U :: -1.57
2) A6G G48C C72A :: 0.333
3) A6G C12A G117A :: -2.34
4) C20U C73G C114G :: -1.71
5) C73A C114G :: -2.17
6) C11U G61A C88G C94G U130C :: -4.74
7) C3U C49A G63A C80U G93A :: -5.66
8) C8G C12G U30C C53G C114U :: -4.29
9) C53G G57U G61A :: -0.189
10) C11G A68U :: -4.49
11) G42U C53G :: -1.45
12) C4G C12A :: -1.87
13) A5U U38G A74G :: -1.15
14) C89G G93A C94G C124G G128C :: -7.66
15) U55G C56U A95U :: -1.91
16) C8G G61C C72A C97U U130A :: 0.551
17) C3U C56U C115U G127U :: -3.57
18) C8U G77C :: -0.262
19) G17A U54C G120U :: -1.75
20) C40A G63A G128U :: -4.66
21) A46U U106A :: -1.09
22) C102A U130A :: -3.46
23) C72G A100U :: -0.592
